src = patent US20240132622A1

- TEST TARGET: extracellular matrix (ECM) proteins
- ASSAY NOTES: ECM plate ELISA (Matrigel), 1 uM antibody, A450 over wells without sample
Some binders, each annotated with its measured ECM Score (1 µM).
The answer should be a number; do not append a unit.

Record request: ECM Score (1 µM) value, item hz20-6 (antibody, V domains shown, light constant region not tied to this antibody) VH: QVQLVQSGAEVKKPGASVKLSCKATGYTFTNYGISWVRQAPGQGLEWIGEIYPRSGNTYHNEKFKDRVTLTADKSSSTAYMEFRSLRSDDTAVYFCARSMITTRYWYFDVWGQGTLVTVSS VL: DIQMTQSPSSLSASVGDRVTITCRASESVDTYGNSFMHWYQQKPGKAPKLLIYLASNLESGVPSRFSGSGSGTDFTLTISSLQPEDFATYYCQQNNEDPLTFGQGTKVEIK
16

Here's the next entry for you.
Need ECM Score (1 µM), item hz20-2 (antibody, IgG1, V domains shown, also called clone 20-based hz20-2 antibody) VH: QVQLVQSGAEVKKPGASVKVSCKASGYTFTNYGISWVRQAPGQGLEWMGEIYPRSGNTYHNEKFKDRVTMTTDTSTSTAYMELRSLRSDDTAVYYCARSMITTRYWYFDVWGQGTLVTVSS VL: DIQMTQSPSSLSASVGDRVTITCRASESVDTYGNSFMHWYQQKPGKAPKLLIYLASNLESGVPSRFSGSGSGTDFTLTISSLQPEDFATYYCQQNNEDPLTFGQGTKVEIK
6
